Source: patent US5476933A

Target: glycine/NMDA receptor (Rattus norvegicus, UniProt P35439)
Construct: expressed in transfected cells; host or cells: Xenopus oocytes (RNA injected)
Experiment: electrophysiology using Xenopus oocytes
Assay type: cell-based
Conditions: from electrophysiology using Xenopus oocytes unless otherwise noted; read-out: Ki
Property Measured: Ki (nM)

1: O=c1cc(O)c(=O)[nH]c2c1CCCC2 [Compound 61]
2: CC1c2c([nH]c(=O)c(O)cc2=O)CC(Cl)C1Cl (centres unmarked) [Compound 112]
3: CC1Cc2[nH]c(=O)c(O)cc(=O)c2CC1C (centres unmarked) [Compound 81]
4: O=c1cc(O)c(=O)[nH]c2c1CC(Cl)C(Cl)C2 (centres unmarked) [Compound 74]
5: O=c1cc(O)c(=O)[nH]c2c1C1CCC2CC1 [Compound 87]
Request: Sort ascending by Ki: all records listed above. // ordering of labels required in reply
Result: 2, 4, 3, 5, 1
(2: 7 nM, 4: 30 nM, 3: 177 nM, 5: 332 nM, 1: 1650 nM)

###

Target: glycine binding site of the NMDA receptor (Rattus norvegicus)
Construct: rat brain membrane homogenates which are enriched in NMDA receptors; tissue Pel-Freez, Rogers, Ark; host or cells: whole rat brain, washed membrane homogenate
Assay: 1 μM glycine-stimulated [3H]-MK-801 binding, rat brain membrane homogenates
Settings: rat brain homogenates, [3H]-MK-801 binding, 1 μM glycine
Property Measured: IC50

{"Smiles Code": "[N-]=[N+]=Nc1ccc2[nH]c(=O)c(O)cc(=O)c2c1", "IC50": "Inactive"}
{"Smiles Code": "Cc1cccc2c(=O)cc(O)c(=O)[nH]c12", "IC50": "inactive"}
{"Smiles Code": "O=C(Nc1ccc2[nH]c(=O)c(O)cc(=O)c2c1)C(F)(F)F", "IC50": "Inactive"}
{"Smiles Code": "Cc1ccc(C)c2c(=O)cc(O)c(=O)[nH]c12", "IC50": "inactive"}
{"Smiles Code": "Cc1cc(C)c2[nH]c(=O)c(O)cc(=O)c2c1", "IC50": "inactive"}

Request: Need IC50 of O=c1[nH]c2ccc(Br)cc2c(=O)cc1O , thanks.
Result: Inactive

Request: Need IC50 of Cc1ccc2[nH]c(=O)c(O)cc(=O)c2c1C , thanks.
Result: inactive

###

Target: glycine binding site of the NMDA receptor (Rattus norvegicus, UniProt P35439)
Construct: rat brain membrane homogenates which are enriched in NMDA receptors; tissue Pel-Freez, Rogers, Ark; host or cells: whole rat brain, washed membrane homogenate
Test: 1 μM glycine-stimulated [3H]-MK-801 binding, rat brain membrane homogenates
Conditions: rat brain homogenates, [3H]-MK-801 binding, 1 μM glycine; read-out: IC50
pIC50: −log10 of the molar value.
Property Measured: pIC50

{"Smiles Code": "O=c1[nH]c2cc(Cl)ccc2c(=O)cc1O", "pIC50": 5.60}

I: Cc1cccc2[nH]c(=O)c(O)cc(=O)c12
II: CC(=O)Nc1ccc2[nH]c(=O)c(O)cc(=O)c2c1
Request: Kindly identify the item with the lower pIC50 figure among these two: I and II Response format: the label of the selected entry.
Result: I
(I: 3.71, II: 4.03)

###

Target: glycine/NMDA receptor (Rattus norvegicus, UniProt P35439)
Construct: expressed in transfected cells; host or cells: Xenopus oocytes (RNA injected)
Assay: electrophysiology using Xenopus oocytes
Format: cell-based
Property Measured: pKi
Remember, pKi is on a log scale: it is -log10 of the molar concentration.

Request: Need pKi of O=c1[nH]c2cc(Cl)c(Cl)c([N+](=O)[O-])c2[nH]c1=O , thanks.
Result: 8.48
